Biological target: T1, RBFOX1 RRM RbFoxmut (Fox-RRM*) (Homo sapiens, UniProt Q9NWB1 109-208, R118D;E147R;N151S;E152T)
T1 sequence: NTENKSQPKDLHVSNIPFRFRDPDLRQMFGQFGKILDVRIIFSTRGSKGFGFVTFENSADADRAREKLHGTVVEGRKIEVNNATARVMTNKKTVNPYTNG
Assay: EMSA; HiTS-Eq, 1 nM pool, 10 min; buffer printed only for the single-RNA assays: 10 mM Tris pH 7.5, 150 mM NaCl, 3.4 mM EDTA, 0.001% NP-40, 30 C
Details: tags: His6 N-terminal (pET28a); label: 5' 32P
The full ranking holds about 16,000 sequences; the median of “ka relative to ugcaugu” is about 0.096, and the highest 2% start at about 0.35. Only a selection was taken, and the highest values are over-represented in it overall.
binding signal listing for selected binders.

| binder | binding signal |
| --- | --- |
| UGAUGCG (DNA:RNA) RNA: GGGAGACCGGAAUUCAGAUUGUCCUGAUGCGUUAAAUCCCGUCGUAGCCACCA DNA 1: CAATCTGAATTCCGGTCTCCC DNA 2: TGGTGGCTACGACGGGATT | 0.141 KA relative to UGCAUGU |

Param item = UUCCAAG (DNA:RNA) RNA: GGGAGACCGGAAUUCAGAUUGUCCUUCCAAGUUAAAUCCCGUCGUAGCCACCA DNA 1: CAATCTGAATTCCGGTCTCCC DNA 2: TGGTGGCTACGACGGGATT ; retrieve measured binding signal.
0.0952 KA relative to UGCAUGU
